Every entry's value here was drawn from patent US20220127247A1.

Target: delF508-CFTR (Homo sapiens, UniProt P13569, DEL508-508)
Construct: expressed in transfected cells
Sequence (P13569 with tags, fused parts or gaps DEL508-508): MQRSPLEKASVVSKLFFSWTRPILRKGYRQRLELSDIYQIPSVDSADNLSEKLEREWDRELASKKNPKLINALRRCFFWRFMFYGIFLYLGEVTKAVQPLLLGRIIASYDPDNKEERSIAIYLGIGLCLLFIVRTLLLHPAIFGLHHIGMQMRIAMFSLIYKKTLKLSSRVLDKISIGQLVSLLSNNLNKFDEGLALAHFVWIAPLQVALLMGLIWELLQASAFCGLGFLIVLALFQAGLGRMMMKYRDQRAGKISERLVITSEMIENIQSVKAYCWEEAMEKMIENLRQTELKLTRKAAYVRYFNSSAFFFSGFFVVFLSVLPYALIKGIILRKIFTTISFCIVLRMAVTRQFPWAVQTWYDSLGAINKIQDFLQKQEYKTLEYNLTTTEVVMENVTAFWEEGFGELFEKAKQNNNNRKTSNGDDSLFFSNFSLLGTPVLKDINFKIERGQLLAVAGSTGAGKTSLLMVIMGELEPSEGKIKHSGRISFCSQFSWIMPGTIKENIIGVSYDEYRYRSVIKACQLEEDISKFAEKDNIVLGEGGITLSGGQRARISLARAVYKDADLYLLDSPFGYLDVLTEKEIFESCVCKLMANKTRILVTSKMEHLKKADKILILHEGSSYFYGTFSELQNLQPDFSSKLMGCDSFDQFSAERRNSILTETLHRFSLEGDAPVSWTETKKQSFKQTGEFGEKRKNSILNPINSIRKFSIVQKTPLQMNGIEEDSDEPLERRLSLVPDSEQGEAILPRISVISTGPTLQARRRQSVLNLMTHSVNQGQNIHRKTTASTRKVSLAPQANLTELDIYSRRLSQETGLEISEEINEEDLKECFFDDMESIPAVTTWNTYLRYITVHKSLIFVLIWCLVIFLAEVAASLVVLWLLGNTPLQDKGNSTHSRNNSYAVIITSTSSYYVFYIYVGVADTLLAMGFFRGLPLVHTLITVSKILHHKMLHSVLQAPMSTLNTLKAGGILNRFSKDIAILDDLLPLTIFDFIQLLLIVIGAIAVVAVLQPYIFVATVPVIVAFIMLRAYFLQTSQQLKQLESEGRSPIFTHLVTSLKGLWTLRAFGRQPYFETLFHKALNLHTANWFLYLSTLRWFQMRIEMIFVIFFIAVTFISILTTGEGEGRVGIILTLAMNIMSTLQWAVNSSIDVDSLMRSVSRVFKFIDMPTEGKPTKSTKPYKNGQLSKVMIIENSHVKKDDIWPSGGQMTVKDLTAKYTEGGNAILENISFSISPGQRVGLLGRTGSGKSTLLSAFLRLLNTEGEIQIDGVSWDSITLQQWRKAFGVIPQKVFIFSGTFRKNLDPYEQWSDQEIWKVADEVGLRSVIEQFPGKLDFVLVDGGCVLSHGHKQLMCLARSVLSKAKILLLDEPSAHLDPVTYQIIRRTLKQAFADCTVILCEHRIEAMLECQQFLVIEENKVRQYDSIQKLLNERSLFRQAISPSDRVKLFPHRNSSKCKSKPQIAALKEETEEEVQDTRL
Experiment: Measurement of delF508-CFTR-HRP surface expression in CFBE41o- cells
Assay type: cell-based
Conditions: HRP-tagged delF508-CFTR in CFBE41o- cells, 24 h with compound, luminescence, 10-point curve, top 10 μM
Description: Measurement of delF508-CFTR-HRP Surface Expression in CFBE41o-Cells This assay quantifies the cell surface expressions of the mutant CFTR channel using an extracellular HRP tag. […] The median activity for the lowest concentration of the compounds on each assay plate was calculated and this value was used to normalize the signal for each well on the respective plate. […] The median value was determined and used to calculate compound activities as described below. […]
reported endpoint: pEC50
Kindly note that pEC50 refers to -log10 of the concentration in mol/L and answer with the value alone.

Record excerpt, results attached:
In one line, give reported pEC50 of the entry CCc1ccc(F)cc1-c1nc(NS(=O)(=O)c2cccc(N(CCCCC(=O)O)C(C)C)n2)ccc1C(F)(F)F .
5.88

Answer with reported pEC50 of Cc1ccccc1-c1nc(NS(=O)(=O)c2cccc(N3CCC(C(C)(C)C(=O)O)CC3)n2)ccc1C(F)(F)F
6.04

Supply recorded pEC50 for Cc1ccc(F)cc1-c1nc(NS(=O)(=O)c2cccc(N3CCCC(C)(CC(=O)O)C3)n2)ccc1C(F)(F)F (stereo not shown) here.
5.83

Now let's try a different one.
Given Cc1ccc(F)cc1-c1nc(NS(=O)(=O)c2cccc(N3CCC(C)(CC(=O)O)C3)n2)ccc1C(F)(F)F (stereo not shown) , respond with its pEC50.
5.77
